# test system: Fructose-bisphosphate aldolase (Mycobacterium tuberculosis (strain ATCC 25618 / H37Rv)) (UniProt P9WQA3)
# Sequence (P9WQA3 whole entry, looked up): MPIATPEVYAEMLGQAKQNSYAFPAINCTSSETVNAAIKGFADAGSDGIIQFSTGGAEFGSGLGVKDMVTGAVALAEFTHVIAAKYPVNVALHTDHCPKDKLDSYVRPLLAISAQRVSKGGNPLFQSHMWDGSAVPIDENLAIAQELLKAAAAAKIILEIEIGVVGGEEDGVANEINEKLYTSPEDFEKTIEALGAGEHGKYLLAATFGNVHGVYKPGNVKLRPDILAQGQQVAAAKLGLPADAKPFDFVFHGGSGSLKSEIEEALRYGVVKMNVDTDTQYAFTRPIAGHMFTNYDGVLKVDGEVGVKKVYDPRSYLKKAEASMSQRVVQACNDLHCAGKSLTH
# assay notes: Mtb FBA enzyme inhibitors, primary screen, biochemical, fluorescence, strain H37Rv (AID 588726);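 further: 0% = vehicle and 100% = reference inhibitor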
# condition set: purified M. tuberculosis FBA, fluorescence read-out, at 1 µM, stronger effect = higher value
The campaign covered roughly 360,000 compounds. About 8,200 (2.3%) were called active. This is one part of a sample in which actives are shown more often than they occur.
Listed next: entries and their corresponding inhibition.
Answer in %, number only, no unit symbol.

The cases that follow already have their inhibition on record.
Please supply the value of reported inhibition for the item COc1cccc(-c2coc3cc4oc(=O)c(CC(=O)O)c(C)c4cc23)c1
6.49

Return inhibition for the following compound: Cc1c(CCC(=O)O)c(=O)oc2cc(OCc3ccc(Br)cc3)ccc12
46.6

Give recorded inhibition. CCN1CCCC1Cn1cnc2c([nH]c3cc(OC)ccc32)c1=O (stereo unspecified)
1.27

Supply reported inhibition belonging to this compound: Cc1ccc2[nH]c3c(=O)n(Cc4ccccn4)cnc3c2c1
29.9

Write down inhibition measured for item Cc1c(Cc2ccccc2)c(=O)oc2cc(OCC(N)=O)ccc12
65.5

Further cases:
Please report inhibition for the following compound: Cc1ccc(OCC(=O)Nc2ccc3oc(=O)ccc3c2)cc1C
1.09

Please list inhibition recorded for the compound CCOC(=O)c1cc(=O)c2ccc(OCc3ccccc3)cc2o1
2.55

Check the records and state inhibition for Cc1ccc(C)c(Cn2cnc3c(oc4ccccc43)c2=O)c1
-1.54

Note inhibition for the compound shown: O=c1c2[nH]c3ccc(Cl)cc3c2ncn1Cc1ccccn1
-2.42

Provide only the value of recorded inhibition for C=Cn1c(C(=O)O)ccc1-c1ccc(OC)cc1
1.98

Look up inhibition of COc1ccc2c(c1)c1nc3n(c(=O)c1n2CC(=O)Nc1ccccc1)CCS3 and report it.
8.41
